- targetOfAssay: PD-L1 on CHO-K1/PD-L1/alphaAPC stimulator cells (UniProt Q9NZQ7 19-290, limits assumed)
- Sequence (Q9NZQ7 19-290 limits assumed): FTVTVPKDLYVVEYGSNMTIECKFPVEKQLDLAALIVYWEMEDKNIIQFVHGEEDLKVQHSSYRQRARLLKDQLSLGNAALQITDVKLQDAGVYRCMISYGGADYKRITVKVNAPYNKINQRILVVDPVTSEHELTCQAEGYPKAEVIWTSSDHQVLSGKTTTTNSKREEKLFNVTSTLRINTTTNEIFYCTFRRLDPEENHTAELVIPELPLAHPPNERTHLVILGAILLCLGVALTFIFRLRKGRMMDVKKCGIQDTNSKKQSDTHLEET
- testName: cell-based or functional assay
Some binders, each annotated with its measured PD-L1/PD-1 blockade EC50 (ng/ml).
Field: numeric (ng/mL). Do not append units.

Worked cases, PD-L1/PD-1 blockade EC50 (ng/ml) given:
1) PD-L1 binding agent 5 (antibody, V domains shown) VH: QVQLVQSGAEVKKPGASVKVSCKASGYTFSTHYMHWVRQAPGQGLEWMGWMNPNSGHAGSAQKFQGRVTMTRDTSTSTVYMELSSLRSEDTAVYYCARESIAVAGYDYWGQGTLVTVSS VL: DIQMTQSPSSLSASVGDRVTITCRASQSISSWLAWYQQKPGKAPKLLIYAASTLQRGVPSRFSGSGSGTDFTLTISSLQPEDFATYYCQQSYSTPYTFGQGTKLEIK = 54.3
2) PD-L1 binding agent 15 (antibody, V domains shown) VH: QVQLVQSGAEVKKPGASVKVSCKASGYTFTRHYVHWVRQAPGQGLEWMGWMNPNSGSAGYAQKFQGRVTMTRDTSTSTVYMELSSLRSEDTAVYYCARERGYNAFDYWGQGTLVTVSS VL: EIVMTQSPATLSVSPGERATLSCRASQSLSSSYLAWYQQKPGQAPRLLIYGASTRATGIPARFSGSGSGTEFTLTISSLQSEDFAVYYCHQYFTTPLTFGQGTRLEIK = 164
3) PD-L1 binding agent 7 (antibody, V domains shown) VH: QVQLVQSGAEVKKPGASVKVSCKASGYTFTSYYMHWVRQAPGQGLEWMGWMNPNSGNTGYAQKFQGRVTMTRDTSTSTVYMELSSLRSEDTAVYYCARDDWGGDWFDPWGQGTLVTVSS VL: DIQMTQSPSSLSASVGDRVTITCQASQDISNHLNWYQQKPGKAPKLLIYGASNLQRGVPSRFSGSGSGTDFTLTISSLQPEDFATYYCQQSYSTPITFGQGTRLEIK = 106
4) PD-L1 binding agent 9 (antibody, V domains shown) VH: QVQLVQSGAEVKEPGASVKVSCKASGYTFTDHYLHWVRQAPGQGLEWMGWMNPNIGNTGYAQKFQGRVTMTRDTSTSTVYMELSSLRSEDTAVYYCAREPLQLGGFDYWGQGTLVTVSS VL: DIQMTQSPSSLSASVGDRVTITCRASESISSWLAWYQQKPGKAPKLLIYAASSLQSGVPSRFSGSGSGTDFTLTISSLQPEDFATYYCQQSYSTPLTFGQGTKLEIK = 97.3

Attention now shifts to the item below.
PD-L1 binding agent 14 (antibody, V domains shown) VH: QVQLVQSGAEVKKPGASVKVSCKASGYNFSAYYVHWVRQAPGQGLEWMGWMNPNRGITDSAQKFQGRVTMTRDTSTSTVYMELSSLRSEDTAVYYCAREAYVAAFDIWGQGTTVTVSS VL: DIQMTQSPSSLSASVGDRVTITCRASQGISSWLAWYQQKPGKAPKLLIYAASSLQSGVPSRFSGSGSGTDFTLTISSLQPEDFATYYCQQSYSTPLTFGGGTKVEIK yielded PD-L1/PD-1 blockade EC50 (ng/ml) of 166
